# tested-target: WT3/LE1 hERG1 channels (L646E) (Homo sapiens, UniProt Q12809, L646E)
# measurement-notes: Two-electrode voltage clamp, concatenated tetramer WT3/LE1 in Xenopus oocytes
# Assay type: cell-based
# settings: 10 µM PD; WT3/LE1; mean ± SEM
measured-quantity: z for activation (Figure 6 legend)

compound	quantitative-result
O=C(O)c1ccccc1Nc1ccc(CCc2ccc(Cl)c(Cl)c2)cc1 [PD]	3.44

* * *

# tested-target: LE1/WT3 hERG1 channels (L646E) (Homo sapiens, UniProt Q12809, L646E)
# measurement-notes: Two-electrode voltage clamp, concatenated tetramer LE1/WT3 in Xenopus oocytes
# Assay type: cell-based
# settings: 10 µM PD; LE1/WT3; mean ± SEM
measured-quantity: z for activation (Figure 6 legend)

compound	quantitative-result
O=C(O)c1ccccc1Nc1ccc(CCc2ccc(Cl)c(Cl)c2)cc1 [PD]	4.2
